Form: system (His6 USP28 (Homo sapiens (Human))), quantity (IC50), values below.

1) Cc1oc(Cc2cccc(Cl)c2)nc1-c1ccc(OCc2ccc(C(=O)N(C)C)cc2COCCO)cc1	< 50 nM
2) CN[C@@H]1CCCN(C(=O)c2ccc(COc3ccc(-c4nc(Cc5cccc(Cl)c5)oc4C)cc3)nc2)C1	< 50 nM
3) Cc1oc(Cc2cccc(Cl)c2)nc1-c1ccc(OCc2ccc(C(=O)N3CCC(N)CC3)cn2)cc1	< 50 nM
4) C[C@@H]1C[C@@H](NC(=O)COc2ccc(-c3nc(Cc4cccc(C#N)c4)no3)cc2)CN1C#N	500 to 1000 nM
5) Cc1oc(Cc2cccc(Cl)c2)nc1-c1ccc(COc2ccc(C(=O)N(C)C)cc2)cc1	< 50 nM

Please indicate IC50 recorded for Cc1oc(Cc2cccc(Cl)c2)nc1-c1ccc(COc2ccc(C(=O)N(C)CCN3CCCNC3=O)cc2)cc1
< 50 nM

Retrieve IC50 measured for C[C@@H]1C[C@@H](NC(=O)COc2ccc(-c3nc(Cc4ccccc4)no3)cc2)CN1C#N and print it.
> 1000 nM

Look up and report measured IC50 for this entry: Cc1ccc(C(=O)NCc2ccc(-c3nc(Cc4cccc(Cl)c4)no3)cc2)cn1
500 to 1000 nM

Give IC50 for CN[C@H]1CCN(C(=O)c2ccc(COc3ccc(-c4nc(Cc5cccc(Cl)c5)oc4C)cc3)nc2)C1
< 50 nM

Output measured IC50 for this item: C[C@@H]1C[C@@H](NC(=O)NCc2ccc(-c3nc(Cc4cccc(Cl)c4)no3)cc2)CN1C#N
50 to 500 nM

Identify measured IC50 corresponding to Cc1oc(Cc2cccc(Cl)c2)nc1-c1ccc(OCc2ccc(C(=O)N3CCC[C@@H](C(=O)O)C3)cn2)cc1
< 50 nM

Entry Cc1oc(Cc2cccc(Cl)c2)nc1-c1ccc(OCc2ccc(C(=O)N3CC4CCC(C3)N4)cn2)cc1 needs its IC50 filled in; supply it.
< 50 nM
